Test: qHTS Assay for Enhancers of SMN2 Splice Variant Expression; further: nearly all actives have a fitted effect of over 55% in size
Conditions: HEK293 SMN2-luciferase splicing reporter, luminescence, 30-36 h; series mostly up to 46.1 µM
Source text: NIH Chemical Genomics Center [NCGC] NIH Molecular Libraries Probe Production centers Network [MLPCN] MLPCN Grant: R03 MH084179-01 Assay Submitter (PI): Elliot Androphy NCGC Assay Overview: Spinal muscular atrophy (SMA) is caused by insufficient levels of the survival motor neuron protein SMN. The SMN locus on chromosome 5q13 contains two inverted copies of SMN called SMN1 and SMN2 which are 99% identical at the amino acid level. […]
In all, about 210,000 compounds went through this assay and about 5,900 (2.8%) were called active. Not shown: some 5% with an inconclusive outcome. The call rests on the fitted dose curve; in most records, active means well fitted activation curve with a large enough effect; inconclusive means small, poorly fitted or top-dose-only effect; inactive means no such curve, though single readings can be large or run the other way. The sample as a whole holds a higher share of actives than the screen did.
Log the outcome using a class from Y for active, N for inactive

Solved cases (8 shown):
{"compound": "CCN1CCN(c2cc(C)c3cc(NC(=O)c4cc(Cl)ccc4OC)ccc3n2)CC1", "class": "N"}
{"compound": "COc1ccc(-c2nc3ccccc3s2)cc1NC(=O)COc1ccccc1C", "class": "N"}
{"compound": "Cc1ccccc1Nc1nc(N)nc(CSc2ccccc2)n1", "class": "Y"}
{"compound": "COc1ccccc1OCc1nc2ccccc2s1", "class": "Y"}
{"compound": "COc1ccc(N(C)C(=O)C2CCN(S(=O)(=O)c3cc(Br)cc4c3N(C(C)=O)CC4)CC2)cc1", "class": "N"}
{"compound": "COc1cc(/C=N/O)ccc1OCc1ccc([N+](=O)[O-])cc1", "class": "Y"}
{"compound": "Cc1cccc(NC(=O)Nc2nnc(-c3ccccc3)o2)c1", "class": "N"}
{"compound": "O=C(NCCc1ccccc1)c1ccc(NC2=NC3CS(=O)(=O)CC3S2)cc1 (stereo not drawn)", "class": "N"}

# input for lookup
Exercise: Which outcome was entered for the compound CCc1ccc(-c2nnn(Cc3nc4ccccc4s3)n2)cc1 in this test?
Solution: N

* * *

Test: qHTS Assay for Enhancers of SMN2 Splice Variant Expression; further: nearly all actives have a fitted effect of over 55% in size
Details: HEK293 SMN2-luciferase splicing reporter, luminescence, 30-36 h; series mostly up to 46.1 µM
About 5,900 (2.8%) of roughly 210,000 compounds were called active. Another 5% or so got no clear call; they are omitted. The call rests on the fitted dose curve; in most records, active means well fitted activation curve with a large enough effect; inconclusive means small, poorly fitted or top-dose-only effect; inactive means no such curve, though single readings can be large or run the other way. Shown is part of a subset that was picked to be rich in actives.
Log the outcome using a class from 1.0 (active), 0.0 (inactive)

Solved cases (6 shown):
{"molecule": "COc1ccc(C(CC(=O)c2ccccc2)S(=O)(=O)c2ccccc2)cc1 (stereo not drawn)", "class": 1.0}
{"molecule": "CCNS(=O)(=O)c1ccc(NC(=O)CSc2nc(-c3ccco3)cc(C(F)(F)F)n2)cc1", "class": 0.0}
{"molecule": "CCOc1cccc(NC(=O)CSc2ncc(-c3ccc(Cl)cc3)[nH]2)c1", "class": 0.0}
{"molecule": "COc1ccccc1-c1nnc(SCC(=O)Nc2cc(C)on2)o1", "class": 0.0}
{"molecule": "COc1ccc(OCC(=O)Nc2nnc(-c3ccco3)s2)cc1", "class": 0.0}
{"molecule": "O=C(c1ccccc1F)N1CCC(c2nc3c(nnn3Cc3cccc(F)c3)c(=O)[nH]2)CC1", "class": 0.0}

Exercise: Which outcome was entered for the molecule COc1ccc(C(=O)CSc2nnc(-c3ccco3)o2)cc1 in this test?
Solution: 0.0

Exercise: Which outcome was entered for the molecule CCc1ccccc1NS(=O)(=O)c1ccc2nc(-c3ccccc3)[nH]c2c1 in this test?
Solution: 0.0

Exercise: Which outcome was entered for the molecule O=C(NC1CCN(Cc2ccccc2)CC1)c1ccc(Cn2c(=O)c3ccccc3n(Cc3cccc(F)c3)c2=O)cc1 in this test?
Solution: 0.0

Exercise: Which outcome was entered for the molecule Cc1cccc(NC(=O)c2cc3c(C)nn(-c4ccccc4)c3s2)c1 in this test?
Solution: 0.0

Exercise: Which outcome was entered for the molecule Cc1c(C(N)=O)sc2ncn(CCOc3ccccc3)c(=O)c12 in this test?
Solution: 0.0

Exercise: Which outcome was entered for the molecule CCCCOc1ccc(-c2nnc(-c3ccco3)o2)cc1 in this test?
Solution: 1.0

Exercise: Which outcome was entered for the molecule COC(=O)c1ccccc1NC(=O)c1ccc(COc2ccccc2Cl)o1 in this test?
Solution: 0.0
